conditions: in n-propanol, 283.15 K
measured-property: solubility (mole fraction)
Numbers only.

In plain terms, O=C(O)C[C@H](O)C(=O)O has a documented solubility (mole fraction) of 0.103

---

conditions: in acetone, 303.15 K
measured-property: solubility (mole fraction)
Give bare numbers.

The recorded solubility (mole fraction) for O=C(O)C[C@H](O)C(=O)O is 0.18

---

settings: in acetone, 278.15 K
measured-property: solubility (mole fraction)
Answers are plain numbers.

solubility (mole fraction) reading for O=C(O)C[C@H](O)C(=O)O : 0.136

---

settings: in acetone, 308.15 K
measured-property: solubility (mole fraction)

Summary for this molecule, O=C(O)C[C@H](O)C(=O)O : solubility (mole fraction) is 0.189
